study target: Luciferin 4-monooxygenase (Photinus pyralis) (UniProt P08659)
Sequence (P08659 whole entry, looked up): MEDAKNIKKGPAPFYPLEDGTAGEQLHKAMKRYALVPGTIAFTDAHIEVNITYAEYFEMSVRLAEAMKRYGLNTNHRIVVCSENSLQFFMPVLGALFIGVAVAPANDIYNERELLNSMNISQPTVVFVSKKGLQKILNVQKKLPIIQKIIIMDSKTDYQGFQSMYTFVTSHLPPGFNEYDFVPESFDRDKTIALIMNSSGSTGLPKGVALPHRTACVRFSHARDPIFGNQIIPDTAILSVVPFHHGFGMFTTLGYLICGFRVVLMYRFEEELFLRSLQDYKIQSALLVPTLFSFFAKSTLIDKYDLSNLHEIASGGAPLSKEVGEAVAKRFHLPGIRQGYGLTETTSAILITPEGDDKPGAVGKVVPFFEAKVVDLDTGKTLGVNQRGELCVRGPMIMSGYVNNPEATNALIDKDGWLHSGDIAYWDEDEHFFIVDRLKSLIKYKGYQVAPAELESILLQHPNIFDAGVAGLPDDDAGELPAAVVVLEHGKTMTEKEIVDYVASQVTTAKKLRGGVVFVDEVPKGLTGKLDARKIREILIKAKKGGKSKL
assay info: FLuc inhibitory activity for the follow-up compounds in a biochemical assay with a commercial detection reagent - BriteliteTM Plus (PerkinElmer)
condition set: purified FLuc, Britelite Plus luminescence; series mostly up to 38.3 µM
Records with an inconclusive call do not appear. Active and inactive are the calls of the source. The call rests on the fitted dose curve; in most records, active means well fitted inhibition curve with a large enough effect; inconclusive means small, poorly fitted or top-dose-only effect; inactive means no such curve, though single readings can be large or run the other way.
Your response should consist of one outcome taken from true (1) = active, false (0) = inactive

Some entries whose results are on file:
COc1ccc2nc(NC(=O)c3nc(S(=O)(=O)Cc4ccc(C)cc4)ncc3Cl)sc2c1 = false (0)
CCOC(=O)N1CCN(CC(=O)Nc2nc3ccc(OC)cc3s2)CC1 = false (0)
COc1cc(OC)cc(C(=O)Nc2ccc(-c3nc4ccccc4s3)c(C)c2)c1 = true (1)
COc1ccc(C(=O)Nc2ccccc2C(=O)N/N=C/c2ccc(O)c(OC)c2)cc1 = true (1)

Would you kindly look at the next entry?
Inquiry: For this compound, state the assay outcome: COc1ccc(C(=O)Nc2cccc(C(=O)O)c2)cc1S(=O)(=O)N1CCCC1
Reply text: false (0)

These entries and their values trace back to PubChem BioAssay AID602474.
